I'd be grateful if you could share measured growth inhibition for these entries.
- experimentSummary: NCI Yeast Anticancer Drug Screen. Data for the rad14 strain (AID 159);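 note: 0% = growth of vehicle-treated control cultures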
- testConditions: S. cerevisiae rad14 strain growth inhibition; at 11.0 µM; active compounds read high
This is part of a sample that, as a whole, favours compounds with a hit. Of some 79,000 tested, about 15% had one in any assay. Activity calls are given as the source filed them. Cut-off read from the data, not from the text of the source: active = growth inhibition above about 70%; inactive = the rest.

# get_value(readout='growth inhibition', item= CNC(=O)OCc1c(COC(=O)NC)c(-c2ccc(-c3ccccc3)cc2)n(C)c1C )
-21% (inactive)

// query: COc1ccc2c(c1)C(=O)c1ccccc1C2
8% (inactive)

// query: COc1cc(C2c3cc4c(cc3OC(NNc3ccccc3)C2C)OCO4)cc(OC)c1OC (stereo not given)
29% (inactive)

// query: O=C(NNc1ccnc2cc(Cl)ccc12)/C(=C\c1ccccc1Cl)NC(=O)c1ccccc1
1% (inactive)

// query: COc1cc(C(=O)/C=C/c2ccccc2O)ccc1O
99% (active)

// query: CCCCCCc1cc(C(=O)OC/C(C)=N/NC(N)=O)c2ccccc2n1
3% (inactive)

// query: O=Nc1c(NO)ccc2nn(-c3ccccc3)nc12
97% (active)

// query: CC(C)/C(Cl)=N\OC(=O)Nc1ccc(F)cc1
11% (inactive)

// query: CCCCCCCCCCCC(=O)N(C)C
12% (inactive)

// query: C(=C\c1ccccc1)/COc1ccccc1C(N1CCOCC1)n1nc2ccccc2n1 (stereo not given)
35% (inactive)

// query: Cc1nc(-c2ccccc2)c(-c2ccccc2)s1
7% (inactive)

// query: O=C(CCCN1CCC(O)(c2ccc(Cl)cc2)CC1)c1ccc(F)cc1
78% (active)

// query: c1ccc2c(c1)-c1nc3ccccc3cc1C2N1CCOCC1 (stereo not given)
-1% (inactive)

// query: C/C(=N/NC(=S)N1CCCCCC1)c1cccc(/C(C)=N\NC(=S)N2CCCCCC2)n1
40% (inactive)

// query: COc1ccc(Br)c(C(=O)Sc2nnnn2-c2cccc(Cl)c2)c1
-30% (inactive)

// query: CN1Cc2ccccc2/C=C\c2ccccc21
1% (inactive)

// query: CCCCc1cc(O)ccc1O
18% (inactive)

// query: CCCCCCCCCCCCCCC(C(=O)[O-])[n+]1ccccc1 (stereo not given)
0% (inactive)

// query: COC1C=COC2(C)Oc3c(C)c(O)c4c(c3C2=O)/C(=N/C2CCC(O)OC2C)C=C(NC(=O)/C(C)=C\C(=O)C2CC2C(O)C(C)C(O)C(C)C(OC(C)=O)C1C)C4=O (stereo not given)
-3% (inactive)

// query: CCN(CC)C(=S)N/N=C(/C)c1cccc(/C(C)=N\NC(=S)N(CC)CC)n1
2% (inactive)

// query: CCOP(=O)(OCC)C(Cc1ccccc1)N=C(c1ccccc1)c1ccccc1 (stereo not given)
-8% (inactive)

// query: Cc1[nH]c2ccccc2c1C(c1ccc(N)cc1)c1c(C)[nH]c2ccccc12
0% (inactive)

// query: CC(C)C1=CC2=C[C@H](O)[C@H]3C(C)(C)CCC[C@]3(C)C2=C(O)C1=O
100% (active)

// query: CC(=O)OCc1ccc(O)c(C=O)c1
2% (inactive)

// query: CCN(CC)CCN1C(=O)c2cccc3cc(OC)cc(c23)C1=O
-9% (inactive)

// query: O=C1c2cc([N+](=O)[O-])ccc2-c2cccc(F)c21
26% (inactive)

// query: CCCN(CCC)CC(O)c1cc(-c2ccc(Cl)cc2)nc2c(C)c(Cl)ccc12 (stereo not given)
99% (active)

// query: CCCS(=O)(=O)Nc1ccc(Nc2c3ccccc3nc3ccccc23)c(OC)c1
-43% (inactive)

// query: COc1ccc2ccc3ccccc3c2c1C=O
5% (inactive)

// query: Clc1ccccc1C1OC1c1ccccc1Cl (stereo not given)
-50% (inactive)

// query: OCC1OC(OCC(O)C(O)C(O)C(/C=N/Nc2ccccc2)=N/Nc2ccccc2)C(O)C(O)C1O (stereo not given)
4% (inactive)

// query: C=CCC1=C(C)C(OC(=O)/C=C/c2ccccc2)CC1=O (stereo not given)
4% (inactive)

// query: CCCCCCCCCCNC(=O)OCC
-3% (inactive)

// query: COCCOC(=O)CCn1cc(F)c(=O)[nH]c1=O
7% (inactive)

// query: BrCc1cccc2ccc3cccc(CBr)c3c12
-2% (inactive)

// query: CN1c2ccc(Cl)cc2C(=O)NC1c1ccc([N+](=O)[O-])s1 (stereo not given)
71% (active)

// query: CCCCCCCCCCC1CCC(=O)O1 (stereo not given)
7% (inactive)

// query: C[C@@H]1C[C@H]2[C@@H]3CCC4=CC(=O)C=C[C@]4(C)[C@@]3(Cl)[C@@H](Cl)C[C@]2(C)[C@@]1(O)C(=O)COP(=O)(O)O
-2% (inactive)

// query: Cc1cc2c(cc1C(=O)CCC(=O)O)CC1(C2)Cc2cc(C)c(C(=O)CCC(=O)O)cc2C1
8% (inactive)

// query: CCC(C(=O)O)C1=C(c2ccccc2)CCc2ccccc21 (stereo not given)
96% (active)

// query: N/C(=N\OC(=O)NC(Cl)=C(Cl)Cl)c1cc(C(F)(F)F)cc(C(F)(F)F)c1
-48% (inactive)

// query: CC(C)(CN1CCCCC1)C(=O)CC(SCCS(=O)(=O)O)c1ccc(Br)cc1 (stereo not given)
42% (inactive)

// query: COc1ccc(O)c(/C=N\Nc2ccccc2)c1
5% (inactive)

// query: COC1=CC(=O)C2C(C1=O)C(c1ccc(Cl)cc1)[C@@H]2C (stereo not given in full)
98% (active)

// query: N#Cc1ccc(C2NN=CC23C(=O)c2ccccc2OC3c2ccccc2)cc1 (stereo not given)
5% (inactive)
